# tgt: Oxysterols receptor LXR-alpha (Homo sapiens, UniProt Q13133)
# Sequence (Q13133 whole entry, the tested form may be a part): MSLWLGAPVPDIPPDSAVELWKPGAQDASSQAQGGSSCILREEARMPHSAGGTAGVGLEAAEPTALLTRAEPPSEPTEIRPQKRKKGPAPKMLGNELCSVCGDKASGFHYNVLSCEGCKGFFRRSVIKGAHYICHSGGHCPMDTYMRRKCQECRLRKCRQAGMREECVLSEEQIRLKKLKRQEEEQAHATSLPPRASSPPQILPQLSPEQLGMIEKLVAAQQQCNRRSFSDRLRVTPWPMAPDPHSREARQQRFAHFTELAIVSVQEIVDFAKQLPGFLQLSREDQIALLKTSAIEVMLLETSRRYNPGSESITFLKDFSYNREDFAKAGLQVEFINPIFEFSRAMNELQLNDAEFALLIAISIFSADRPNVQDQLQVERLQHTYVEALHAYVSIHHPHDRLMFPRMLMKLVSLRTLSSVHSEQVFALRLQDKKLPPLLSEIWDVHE
# test_protocol: Agonist activity at human recombinant LXRalpha expressed in Escherichia coli BL21 cells assessed as association of recombinant SRC1 to LXRalpha ligand binding domain by HTRF assay
pEC50: −log10 of the molar value.
outcome_measure: pEC50

// known answers, use as guide
compound	tgt	pEC50
CC(C)CC[C@@H](O)[C@@H](C)[C@H]1CC[C@H]2[C@@H]3CC=C4C[C@@H](O)CC[C@]4(C)[C@H]3CC[C@]12C [22(R)-HYDROXYCHOLESTEROL]	Oxysterols receptor LXR-alpha (Homo sapiens, UniProt Q13133)	< 4.82
C=C(C)[C@@H]1CC[C@]2(C(=O)O)CC[C@]3(C)[C@H](CC[C@@H]4[C@@]5(C)CC[C@H](O)C(C)(C)[C@@H]5CC[C@]43C)[C@@H]12	Oxysterols receptor LXR-alpha (Homo sapiens, UniProt Q13133)	< 4.30
C=C[C@@]1(C)CC=C2[C@@H](CC[C@@H]3[C@](C)(C(=O)NCC45CC6CC(CC(C6)C4)C5)CCC[C@@]23C)C1	Oxysterols receptor LXR-alpha (Homo sapiens, UniProt Q13133)	< 4.30

Please supply pEC50 for each of the following items, keeping them in order.
1. C/C(=C\CC[C@@H](C)[C@H]1CC[C@@]2(C)[C@@H]3CC=C4[C@@H](CC[C@@H](O)C4(C)C)[C@]3(C)CC[C@]12C)C(=O)O
2. CC(C)CCC[C@@H](C)[C@H]1CC[C@H]2C3=CC(=O)[C@H]4C[C@@H](O)CC[C@]4(C)[C@@]3(O)CC[C@]12C
3. C[C@]1(C(=O)O)CCC[C@]2(C)c3cc(O)ccc3CC[C@@H]12

Out:
1: < 4.30; 2: < 4.82; 3: < 4.30
